Provide the recorded composite z-score for the entries that follow.
Experiment: small-molecule microarray binders of probe aWnt5a, primary screen, biochemical, biotinylated probe, 635/667 nm fluorescence (AID 1113);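 note: score merges 667 nm fluorescence intensity with signal-to-noise per printed feature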
Conditions: higher = more signal
Answers are plain numbers.

Suppose we examine the compound Cc1ccccc1C(O)C1C=CC2C(=O)N(c3ccccc3)C(=O)C2N1Nc1ccc(C(C)C)cc1 (stereo unspecified) ; what composite z-score value has been reported?
-0.0721

Suppose we examine the compound NC(=O)[C@@H]1[C@H]2C(=O)O[C@H](c3ccccc3)[C@H](c3ccccc3)N2[C@H](c2ccc(O)cc2)[C@@]12C(=O)Nc1ccccc12 ; what composite z-score value has been reported?
-0.127

Suppose we examine the compound COC(=O)C(CC#Cc1ccc2c(c1)[C@]1(C(=O)N2)[C@H](C(=O)Nc2nc3ccccc3s2)[C@H]2C(=O)O[C@H](c3ccccc3)[C@H](c3ccccc3)N2[C@@H]1c1ccc(O)cc1)C(=O)OC ; what composite z-score value has been reported?
0.027

Suppose we examine the compound C=C[C@H](OC)[C@@H](OC(=O)Nc1ccc(OC)cc1)c1ccc(O)c(F)c1 ; what composite z-score value has been reported?
-0.28

Suppose we examine the compound CC(=O)NCCCC[C@@H]1NC(=O)[C@@H]2C[C@H](C(=O)NCCCCCNC(=O)CS)[C@H](c3cccc(OCCO)c3)N2C1=O ; what composite z-score value has been reported?
-0.214

---
Suppose we examine the compound NC(=O)NCC#Cc1ccc2c(c1)[C@]1(C(=O)N2)[C@H](C(N)=O)[C@H]2C(=O)O[C@H](c3ccccc3)[C@H](c3ccccc3)N2[C@@H]1c1ccc(O)cc1 ; what composite z-score value has been reported?
0.726
